Biological target: FIH (Homo sapiens, UniProt Q9NWT6)
Construct: Full-length recombinant FIH, two- and three-consensus ankyrin repeats (2CA and 3CA) were produced as described; His6 (cleaved yes); made in house; host or cells: Escherichia coli BL21(DE3)
Sequence (Q9NWT6 whole entry): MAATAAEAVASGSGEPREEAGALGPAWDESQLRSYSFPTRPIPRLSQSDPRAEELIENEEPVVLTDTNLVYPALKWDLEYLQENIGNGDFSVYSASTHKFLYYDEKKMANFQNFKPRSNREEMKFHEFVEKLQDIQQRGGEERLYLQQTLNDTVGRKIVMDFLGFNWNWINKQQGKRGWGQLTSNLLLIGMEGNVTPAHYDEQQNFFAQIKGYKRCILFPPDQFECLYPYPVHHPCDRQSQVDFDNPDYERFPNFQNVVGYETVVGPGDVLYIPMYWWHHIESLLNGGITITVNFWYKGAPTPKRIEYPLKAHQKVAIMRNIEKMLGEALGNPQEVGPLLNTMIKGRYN
Assay: Stopped-flow UV-visible spectroscopy, FIH·Fe(II)·2OG·substrate + O2
Type: biochemical
Conditions: anaerobic 0.5 mM FIH, 1 mM substrate, 5 mM 2OG, 0.4 mM Fe(II), 50 mM HEPES pH 7.5, mixed 1:1 with O2-saturated buffer at 5 °C; double exponential fit
This section presents sequences with their documented Stopped-flow, 500 nm (FIH) krise phase values.
Note to self: number, then unit, no commentary.

// known answers, use as guide
AAGYNNLEVAEYLLEHGADVNAQDKGGLIPLHNAA [tnkrs-1_35-mer, 35-mer fragment of tankyrase-1, ARD substrate of FIH]    0.27 ± 0.03 s⁻¹
DESGLPQLTSYDCEVNAPIQGSRNLLQGEELLRAL [HIF-1α CAD35-mer]    0.009 ± 0.005 s⁻¹
HLEVVKLLLEAGADVNAQDK [1CA20-mer]    0.4 ± 0.1 s⁻¹
NLEVAEYLLEHGADVNAQDK [tnkrs-1_20-mer, 20-mer fragment of tankyrase-1, ARD substrate of FIH]    0.4 ± 0.2 s⁻¹
SDKNGSTPLHLAARNGHLEVVKLLLEHGADVNAQDKWGKTAFDISIDNGNEDLAEILQ [2CA, recombinant two-consensus ankyrin repeat protein produced in Escherichia coli]    0.6 ± 0.1 s⁻¹

Now take the following sequence into account.
Task item: Look up and state reported Stopped-flow, 500 nm (FIH) krise phase for ESYLLPELTRYDCEVNVPVLGSSTLLQGGDLLRAL [HIF-2α CAD35-mer]
Reply: 0.017 ± 0.01 s⁻¹

* * *

This section presents sequences with their documented kcat^app values.
Target: FIH (Homo sapiens)
Construct: Full-length recombinant FIH, two- and three-consensus ankyrin repeats (2CA and 3CA) were produced as described; His6 (cleaved yes); made in house; host or cells: Escherichia coli BL21(DE3)
Assay: Steady-state kinetics of FIH-catalyzed peptide/protein hydroxylation (MALDI-TOF-MS or LC-MS)
Type: biochemical
Settings: FIH; 50 μM Fe(II), 1 mM L-ascorbate, 50 mM HEPES pH 7.5, 37 °C; MALDI-TOF-MS or LC-MS
Express your answer in s⁻¹, writing the number without its unit.

// known answers, use as guide
SDKNGSTPLHLAARNGHLEVVKLLLEHGADVNAQDKWGKTAFDISIDNGNEDLAEILQ [2CA, recombinant two-consensus ankyrin repeat protein produced in Escherichia coli]    1.7
AAGYNNLEVAEYLLEHGADVNAQDKGGLIPLHNAA [tnkrs-1_35-mer, 35-mer fragment of tankyrase-1, ARD substrate of FIH]    3.0

Now take the following sequence into account.
Task item: Look up and state reported kcat^app for DESGLPQLTSYDCEVNAPIQGSRNLLQGEELLRAL [HIF-1α CAD35-mer]
Reply: 0.56

* * *

Target: FIH (Homo sapiens, UniProt Q9NWT6)
Construct: Full-length recombinant FIH, two- and three-consensus ankyrin repeats (2CA and 3CA) were produced as described; His6 (cleaved yes); made in house; host or cells: Escherichia coli BL21(DE3)
Assay: Rapid quench-flow, FIH pre-steady-state product and succinate formation
Assay type: biochemical
Settings: 0.5 mM apo-FIH, 0.4 mM Fe(II), 5 mM 2OG, 1 mM substrate, 50 mM HEPES pH 7.5, O2-saturated buffer 1:1, 5 °C, quenched with 1% CF3CO2H, hydroxylation by MALDI-TOF-MS, 1–3 separate experiments
experimental_readout: Rapid quench-flow kproduct
Note to self: number, then unit, no commentary.

DESGLPQLTSYDCEVNAPIQGSRNLLQGEELLRAL [HIF-1α CAD35-mer]    0.33 s⁻¹
DESGLPQLTSYDCEVNAPI [CAD HIF-1α19-mer]    0.013 ± 0.003 s⁻¹
HLEVVKLLLEAGADVNAQDK [1CA20-mer]    1.3 ± 0.2 s⁻¹
NLEVAEYLLEHGADVNAQDK [tnkrs-1_20-mer, 20-mer fragment of tankyrase-1, ARD substrate of FIH]    1.5 ± 0.1 s⁻¹

Task item: Look up and state reported Rapid quench-flow kproduct for AAGYNNLEVAEYLLEHGADVNAQDKGGLIPLHNAA [tnkrs-1_35-mer, 35-mer fragment of tankyrase-1, ARD substrate of FIH]
Reply: 11 ± 3 s⁻¹

Task item: Look up and state reported Rapid quench-flow kproduct for ESYLLPELTRYDCEVNVPVLGSSTLLQGGDLLRAL [HIF-2α CAD35-mer]
Reply: 0.12 ± 0.01 s⁻¹

Task item: Look up and state reported Rapid quench-flow kproduct for SDKNGSTPLHLAARNGHLEVVKLLLEHGADVNAQDKWGKTAFDISIDNGNEDLAEILQ [2CA, recombinant two-consensus ankyrin repeat protein produced in Escherichia coli]
Reply: 0.5 ± 0.1 s⁻¹
